Test system: A498
MEASUREMENT_NOTES: NCI tumour cell line growth inhibition, 48 h
Activity calls are given as the source filed them. Cut-off read from the data, not from the text of the source: active = GI50 up to about 1.1 µM and inactive = higher.

| COMPOUND | GI50 |
| --- | --- |
| CC(C)C1CNC(=O)C2(/C=N/C(C(C)C)CNC(=O)C3(/C=N/1)CCCO3)CCCO2 (stereo not given) | > 10 µM (inactive) |
| COC(=O)C(CCC1CC(OC)N(C(=O)OCc2ccccc2)C1)/N=C/c1ccccc1 (stereo not given) | > 100 µM (inactive) |
| COC(=O)C1(Cc2ccc3c(c2)CCC3)Cc2ccccc2C1 | 32.8 µM (inactive) |
| CCCCc1ccc(Nc2nc(O)c3ncn(COCCO)c3n2)cc1 | > 100 µM (inactive) |
| COc1ccc(NC(=O)CC2SC(Nc3ccc(Cl)cc3C)=NC2=O)c([N+](=O)[O-])c1 (stereo not given) | > 100 µM (inactive) |

###

Tested on: HCT-116
MEASUREMENT_NOTES: NCI tumour cell line growth inhibition, 48 h
The source made the active and inactive calls. Rule as the data show it: active = GI50 up to about 1.1 µM and inactive = higher.
Classes used: 1 for active, -1 for inactive

| COMPOUND | MEASURED_ON | CATEGORY_LABEL |
| --- | --- | --- |
| O=[N+]([O-])c1ccc(NN/N=N/c2ccc(-c3nc4ccccc4s3)cc2)c([N+](=O)[O-])c1 | HCT-116 | -1 |
| COc1cc(O)ccc1C(=S)SC | HCT-116 | -1 |
| COC1=C2C[C@H](O)C(C)C[C@@]2(OC)OC1=O (stereo partly specified) | HCT-116 | -1 |
| Nc1ccccc1C(=O)CC1OC(=O)c2ccccc21 (stereo unspecified) | HCT-116 | -1 |
| O=C1CS[C@@](CC(c2ccc(Cl)cc2)c2ccc(Cl)cc2)(c2ccc(Cl)cc2)N1 | HCT-116 | -1 |
| CSCCC(N)C(=O)NCCNc1ccc(NCCNC(=O)C(N)CCSC)c2c1C(=O)c1ccccc1C2=O (stereo unspecified) | HCT-116 | 1 |

###

Tested on: ACHN
MEASUREMENT_NOTES: NCI tumour cell line growth inhibition, 48 h
Calls of active or inactive are those of the source. Rule as the data show it: active = GI50 up to about 1.1 µM and inactive = higher.
Classes used: 1 for active, 0 for inactive

| COMPOUND | MEASURED_ON | CATEGORY_LABEL |
| --- | --- | --- |
| COc1ccc2nc3cc(Cl)ccc3c(NCCCN(CCCl)CCCl)c2c1 | ACHN | 1 |
| COc1ccc(-c2cc(-c3ccc(Nc4ccnc5cc(C(F)(F)F)ccc45)cc3)nc(N)c2C#N)cc1 | ACHN | 0 |
| O=C1c2c(O)cccc2C(C(=O)CCCCCC(=O)C2c3cccc(O)c3C(=O)c3c(O)cccc32)c2cccc(O)c21 | ACHN | 0 |
| CC(=O)OC[C@@H](OC(C)=O)[C@@H](OC(C)=O)[C@H]1OC[C@@H]2C[C@H]([C@H]1OC(C)=O)N(Cc1ccccc1)O2 | ACHN | 0 |
| COc1ccc2nc3ccc(OC)cc3c(SCc3ccc([N+](=O)[O-])cc3)c2c1 | ACHN | 0 |
| O=c1c2ccccc2c(=O)c2c1cc(Cl)c1[nH]c3c([nH]c12)c(Cl)cc1c(=O)c2ccccc2c(=O)c13 | ACHN | 0 |
| O=C(Nc1ccc(Cl)cc1C(F)(F)F)C(=O)C1CCCS1(=O)=O (stereo not drawn) | ACHN | 0 |
| O=[N+]([O-])c1ccc2c(c1)N=C1OC(c3c[nH]c4ccc(COc5ccccc5)cc34)C(O)=C1N2 (stereo not drawn) | ACHN | 0 |

###

Recorded GI50 by entry
Test system: UACC-62
MEASUREMENT_NOTES: NCI tumour cell line growth inhibition, 48 h
Activity calls are given as the source filed them. No stated cut-off is given here; in the data, active = GI50 up to about 1.1 µM and inactive = higher.

| MOLECULE | GI50 |
| --- | --- |
| CSCCC(N)C(=O)NCCNc1ccc(NCCNC(=O)C(N)CCSC)c2c1C(=O)c1ccccc1C2=O (stereo unspecified) | 1.23 µM (inactive) |
| CCSc1nc(N2CCOCC2)c2cn[nH]c2n1 | 20.7 µM (inactive) |
| Cc1c2n(c(=O)[nH]c1=O)C1OC(CO)C(O2)C1N=[N+]=[N-] (stereo unspecified) | > 100 µM (inactive) |
| COc1ccc(CN(CCc2c[nH]c3ccccc23)Cc2ccc(OC)cc2)cc1 | 2.14 µM (inactive) |
| C/C(=N\N=C(\N)SB(F)F)c1ccc2ccccc2c1 | > 100 µM (inactive) |
| CCCNc1ncnc2c1cnn2C | > 100 µM (inactive) |

###

Test system: NCI-H23
MEASUREMENT_NOTES: NCI tumour cell line growth inhibition, 48 h
The source made the active and inactive calls. No stated cut-off is given here; in the data, active = GI50 up to about 1.1 µM and inactive = higher.
Recorded GI50 by entry

| COMPOUND | GI50 |
| --- | --- |
| Oc1c(Cl)c(Cl)c(O)c(-c2cnc(-c3ncc(-c4c(O)c(Cl)c(Cl)c(O)c4Cl)s3)s2)c1Cl | 19.3 µM (inactive) |
| COc1ccccc1/C=C1\NC(=S)N(/C=C2\C(=O)Oc3ccccc3C2=O)C1=O | 35.9 µM (inactive) |
| CC(C)OP(=O)(OC(C)C)/C(=N/Nc1ccccc1[N+](=O)[O-])NCCN/C(=N\Nc1ccccc1[N+](=O)[O-])P(=O)(OC(C)C)OC(C)C | 14.5 µM (inactive) |
| CCOC(=O)Cn1nc2ccc(Nc3c(C)[n+]([O-])c4cc(F)c(OCC)cc4[n+]3[O-])cc2n1 | > 100 µM (inactive) |
| CC1OC(OC2C(O)COC(OC3C(C)OC(OC4C(OC(=O)[C@]56CCC(C)(C)C[C@@H]5C5=CCC7[C@@]8(C)C[C@H](O)[C@H](OC9OC(CO)C(O)C(O)C9O)[C@@](C)(CO)[C@@H]8CC[C@@]7(C)[C@]5(C)CC6)OCC(O)C4O)C(O)C3O)C2O)C(O)C(O)C1O (stereo partly drawn) | 28.2 µM (inactive) |
| O=C(c1ccccc1)c1cn(/N=C\c2ccccc2)c(=O)nc1-c1ccccc1 | > 100 µM (inactive) |
| N#Cc1nc(CSCc2ccccc2)oc1N | > 100 µM (inactive) |
| Cc1cn(C2OC(C)(CO)C(O)C2O)c(=O)[nH]c1=O (stereo not drawn) | > 100 µM (inactive) |

###

System: 786-0
MEASUREMENT_NOTES: NCI tumour cell line growth inhibition, 48 h
The source made the active and inactive calls. Cut-off read from the data, not from the text of the source: active = GI50 up to about 1.1 µM and inactive = higher. Starred links: 1 amine or outer side, 2 acyl side, 3 side chain; linkers in the order of their positions; H or OH if unused. Non-standard residues stand in square brackets, D forms with d. Residues, ends and D or L forms follow the SMILES beside them. *: point of attachment. X34 = CC(=O)N(C)SCC(N[*:1])C(=O)[*:2]; Cbz = O=C(OCc1ccccc1)*; Bn = c1ccc(C*)cc1; For = O=C*
Recorded GI50 by entry

| COMPOUND | GI50 |
| --- | --- |
| CC(=O)N(C)SCC(NC(=O)C(Cc1ccccc1)NC(=O)OCc1ccccc1)C(=O)NC(Cc1ccccc1)C(=O)NC(Cc1cn(C=O)c2ccccc12)C(=O)NC(CCCCNC(=O)OCc1ccccc1)C(=O)NC(C(=O)NC(CSN(C)C(C)=O)C(=O)NC(C(N)=O)C(C)OCc1ccccc1)C(C)OCc1ccccc1 (configuration not stated) (Cbz-F[X34]FW(For)K(Cbz)T(Bn)[X34]T(Bn)-NH2; configuration not given here) | 24.1 µM (inactive) |
| COc1ccc(N2C(=O)/C(=C/c3ccc(N(CCC#N)CCC#N)cc3)N=C2c2ccccc2)cc1 | > 100 µM (inactive) |

###

Tested on: UACC-257
MEASUREMENT_NOTES: NCI tumour cell line growth inhibition, 48 h
Active and inactive are the calls of the source. Rule as the data show it: active = GI50 up to about 1.1 µM and inactive = higher.
Classes used: 1 for active, -1 for inactive

| COMPOUND | CATEGORY_LABEL |
| --- | --- |
| CCOC(=O)/C=C/[C@H](O[Si](CC)(CC)CC)C(C)(C)C | -1 |
| CC1=C(C(=O)N[C@@H](CC(C)C)C(=O)O)N2C(=O)[C@@H](NC(=O)C(N)c3ccccc3)[C@H]2SC1 (some centres not stated) | -1 |
| CC1=Nc2ccccc2NC(c2ccoc2)C1 (configuration not stated) | -1 |
| COc1cc(-c2c[nH]c3ccccc23)nc(-c2c[nH]c3ccccc23)n1 | -1 |
| COc1nc(OC)nc(-c2cccc(F)c2)n1 | -1 |
| O=Cc1ccccc1COC(=O)c1cc(C(=O)OCc2ccccc2C=O)c(C(=O)OCc2ccccc2C=O)cc1C(=O)OCc1ccccc1C=O | -1 |
| CCCCc1ccc(Nc2nc(O)c3ncn(COCCO)c3n2)cc1 | -1 |
| COCN1C(=O)[C@@H]2CCCN2C(=O)c2cc(Cl)ccc21 | -1 |
| O=C(O)CC1NCc2cc3ccccc3nc21 (configuration not stated) | -1 |
| CCOC(=O)C1=CCOc2cc(N(C)C)ccc21 | -1 |
| NS(=O)(=O)c1ccc(NC(=S)N/C=C2\C(=O)Nc3ccccc3C2=O)cc1 | -1 |
| O=c1[nH]c2nc3ccccc3c(=O)n2/c1=C/c1ccc(O)cc1 | -1 |
| CCc1cc(C(=O)OC)cn1C(=N)c1ccc(Cl)cc1 | -1 |
| C[C@]12CCC3c4ccc(O)cc4CC[C@H]3C1CC(=O)N(N)C2=O (some centres not stated) | -1 |
| O=c1[nH]c2cc([N+](=O)[O-])c(N(CCO)CCO)c([N+](=O)[O-])c2[nH]1 | -1 |
| COc1ccc2nc3ccc(OC)cc3c(SCC3CO3)c2c1 (configuration not stated) | -1 |
| CCN(CC)[C@@H]1c2cc3c(cc2C(c2cc(OC)c(O)c(OC)c2)C2C(=O)CO[C@@H]21)OCO3 (some centres not stated) | -1 |
| COC(=O)c1c(O)c(C#N)c2[nH]c3ccccc3n2c1=O | -1 |
| COc1cc(/C=C\c2ccc(C)cc2)cc(OC)c1OC | 1 |
| CN(C)CCCNc1ccc2ncn3c4ccccc4c(=O)c1c23 | -1 |
| NC(=O)Nc1cc(O)ccc1/N=N/c1ccc(S(=O)(=O)Nc2ccccn2)cc1 | -1 |
| C=C1C(=O)OC2CC(C)C3C4OC4C(O)C3(C)C(O)C12 (configuration not stated) | -1 |
